From: the supplement of paper PMC10724198

# Test system: Saccharomyces cerevisiae
# ASSAY_TEXT: protein stability index of tFT-peptide fusion (C-terminal peptide) (PSI (0-1 scale)); higher = more stable (slower turnover)
# TEST_CONDITIONS: genetic background: wild type; temperature: 30 C
Where protein stability index equals or exceeds 0.6, the correct label is met; where it does not, the label is not met.

Previously resolved entries follow.
EARRHTKHPGKI met
SNGFYVSRPIVY met
WGRARCAVGVSG met
HRNILSIIIKNL not met
VLLAVGELFRVD met
FFDPPPSLSALI met
GAPKRLSISLSS met
GFAFFIGLSFAF not met
HSQAPPPHPHAP met
RYELSLRLYGSL met

Input: # bool: protein stability index of `RPPRPSSSPLPP` >= 0.6
Output: met

----------
# Tested on: Saccharomyces cerevisiae
# ASSAY_TEXT: protein stability index of tFT-peptide fusion (C-terminal peptide) (PSI (0-1 scale)); higher = more stable (slower turnover)
# TEST_CONDITIONS: genetic background: das1 deletion; temperature: 30 C
Would you mind telling me the reported protein stability index of each entry?
Give bare numbers.

# annotated cases, reported protein stability index shown
QPSSFDMLGLLL 0.654
IILAIRLLVDTL 0.146
ERRWKRKVIGLC 0.594
PFFFIFVLPFVF 0.366
GTETWVFVLLKF 0.169

Your task in this section: give protein stability index for each listed record.
1. WWDCAVWVRCGG
2. LRCCGALPLYAY
3. LLASFWKFIVNI
4. LWFRCVRMQACR
5. PHGLKPHCPTPS
6. LLFYSYFFFVLY
7. IRDGPWKRVLVV

Output:
1: 0.382; 2: 0.238; 3: 0.641; 4: 0.411; 5: 0.654; 6: 0.248; 7: 0.48

Your task in this section: give protein stability index for each listed record.
1. SYMWLVEVLLFI
2. LSRFRYFVLTSL
3. IFLLFPFSWRIF
4. AFTFLLCWLFGV
5. SIQRKIRRMKEN
6. LVVAVLKIIMSS

Output:
0.196
0.608
0.56
0.552
0.699
0.2

Input: Endpoint output: protein stability index of `GITSFFSWSFLS` . Value?
Output: 0.682

----------
# System: Saccharomyces cerevisiae
# ASSAY_TEXT: protein stability index of tFT-peptide fusion (C-terminal peptide) (PSI (0-1 scale)); higher = more stable (slower turnover)
# TEST_CONDITIONS: genetic background: wild type; temperature: 30 C
Would you mind telling me the reported protein stability index of each entry?

SEQUENCE_CONTENT	TARGET	protein stability index
EDIKQALKQATN [CYS3 C-terminal 12 aa]	Saccharomyces cerevisiae	0.654
QSSHFGQVDEII [DUR3 C-terminal 12 aa]	Saccharomyces cerevisiae	0.726
MVYKPEDSLLKI [MTR2 C-terminal 12 aa]	Saccharomyces cerevisiae	0.67
LEDSTRVYSNLM [ARP1 C-terminal 12 aa]	Saccharomyces cerevisiae	0.684
DDSSSTDTEERE [SSK2 C-terminal 12 aa]	Saccharomyces cerevisiae	0.683

Your task in this section: give protein stability index for each listed record.
1. SLSLRNHNSSQL [CLN1 C-terminal 12 aa]
2. RLWSRKEFRLGT [SNU71 C-terminal 12 aa]
3. LTVTRWKLQITG [YPR160W-A C-terminal 12 aa]
4. YKNLRKTSSSHL [NPY1 C-terminal 12 aa]
5. DFFDYDLLFQND [PIP2 C-terminal 12 aa]

Output:
[0.701, 0.7, 0.449, 0.84, 0.788]

Your task in this section: give protein stability index for each listed record.
1. TGFKDKFLDALL [PUT4 C-terminal 12 aa]
2. TIKKGTTLEPIA [GCD11 C-terminal 12 aa]
3. FHPLFYCSALVF [YIL142C-A C-terminal 12 aa]
4. ATSLSPNKASAS [YJL026C-A C-terminal 12 aa]
5. FADKIKPTKVAE [MCK1 C-terminal 12 aa]
6. VEKDLVSVGSTW [NAR1 C-terminal 12 aa]
7. LNELGEFKVINS [NPR2 C-terminal 12 aa]
8. NLANDEQPLHNL [MDM30 C-terminal 12 aa]

Output:
1. 0.69
2. 0.7
3. 0.277
4. 0.66
5. 0.691
6. 0.707
7. 0.691
8. 0.659

Your task in this section: give protein stability index for each listed record.
1. IKLNKKKVKLST [HHO1 C-terminal 12 aa]
2. KKKSQNKSRKDD [PBR1 C-terminal 12 aa]

Output:
[0.61, 0.691]

Your task in this section: give protein stability index for each listed record.
1. PPASESNKGINE [YDR008C C-terminal 12 aa]
2. KDAFLKELGLQN [PRD1 C-terminal 12 aa]
3. ILRQYFTDLASS [REA1 C-terminal 12 aa]
4. KWVGQYPVPGDI [SHM1 C-terminal 12 aa]
5. KFFLTISADVSF [YNL057W C-terminal 12 aa]

Output:
[0.661, 0.678, 0.696, 0.687, 0.647]

----------
# System: Saccharomyces cerevisiae
# ASSAY_TEXT: protein stability index of tFT-peptide fusion (C-terminal peptide) (PSI (0-1 scale)); higher = more stable (slower turnover)
# TEST_CONDITIONS: genetic background: wild type; temperature: 30 C
Would you mind telling me the reported protein stability index of each entry?
One number for each entry.

# annotated cases, reported protein stability index shown
QDSTNTPHTCRS 0.695
FLFCWGCCRLFW 0.581
RSRCHPRLPRAV 0.707

Your task in this section: give protein stability index for each listed record.
1. FDLVFRPVLGLL
2. WIPITSDKCNFK
3. RPPPLPLPPHFP
4. QKNKKRQTTYES
5. LPSPYPMPPPLP
6. EWRWCESKIITV
7. RTAGQRLIRVNR
8. LGSFLPLLPSPP

Output:
1. 0.625
2. 0.709
3. 0.709
4. 0.662
5. 0.736
6. 0.625
7. 0.744
8. 0.674

Your task in this section: give protein stability index for each listed record.
1. FQHFGAPPTWHE
2. SPGLLPPPTSAF
3. SSSPTPLPRSLP
4. PGFCFFLYYCMM
5. FTCSAIIHVCGL
6. YRIMRRKEKEER
7. KQERCCEEREEK

Output:
[0.742, 0.71, 0.671, 0.49, 0.571, 0.669, 0.729]

Your task in this section: give protein stability index for each listed record.
1. YYLCHIEEFLSS
2. RPSLSPLHVPPS

Output:
1. 0.622
2. 0.748

Your task in this section: give protein stability index for each listed record.
1. SVPGLELGLPLR
2. RIFSPVFLSMSV
3. GCRSYRVFSGMI
4. DHSWGGLLICTC

Output:
0.675
0.649
0.727
0.473

Your task in this section: give protein stability index for each listed record.
1. CLSDPDVVRVLS
2. LVLVASVGVGRV
3. PMVLLDTIQRHT
4. GGWGGEVVLWQA
5. RLHSLFVSCPTC
6. SVMFSSLTRPPL
7. FFCVLGLSFFCL
8. VLNCVGLSLLVE

Output:
[0.691, 0.556, 0.721, 0.678, 0.703, 0.65, 0.542, 0.607]

Your task in this section: give protein stability index for each listed record.
1. RGPPRRLQCLGR
2. LPLHTLLLCPPV
3. QREGPEKRTHGR
4. AVLGGLIYECVV
5. VLLLGYDRGWDD

Output:
1. 0.712
2. 0.493
3. 0.709
4. 0.634
5. 0.718

Your task in this section: give protein stability index for each listed record.
1. QPTPRPSPRPAC
2. RWIPRMSFSESQ
3. PSPGPPHPPPLF
4. PSFPHLPDFFIP

Output:
1: 0.672; 2: 0.666; 3: 0.713; 4: 0.678

----------
# Test system: Saccharomyces cerevisiae
# ASSAY_TEXT: protein stability index of tFT-peptide fusion (C-terminal peptide) (PSI (0-1 scale)); higher = more stable (slower turnover)
# TEST_CONDITIONS: genetic background: wild type; temperature: 30 C
Would you mind telling me the reported protein stability index of each entry?
Numbers only.

# annotated cases, reported protein stability index shown
SEQUENCE_CONTENT	protein stability index
TPGGGGFGQYKD [OXP1 C-terminal 12 aa]	0.677
DGSADLGGWETM [UBR2 C-terminal 12 aa]	0.733
FSLLSFISYFLL [YPS6 C-terminal 12 aa]	0.379
GPEPPRYDEISS [CSR2 C-terminal 12 aa]	0.635
AGALAAVAAMLL [TIR4 C-terminal 12 aa]	0.679
DIIKSIGDSYSI [NSE3 C-terminal 12 aa]	0.734

Your task in this section: give protein stability index for each listed record.
1. WEAYLRRCGQQN [URA3 C-terminal 12 aa]
2. FILELKNICKCT [MOH1 C-terminal 12 aa]
3. EDHKVDGNKKED [VMA21 C-terminal 12 aa]
4. KTETLSVPRILT [YBR090C C-terminal 12 aa]
5. IPAYKKHGIQKN [OSH7 C-terminal 12 aa]

Output:
0.658
0.525
0.707
0.722
0.693

Input: Endpoint output: protein stability index of YLVHNNADEKSN [CUZ1 C-terminal 12 aa] . Value?
Output: 0.695
